Cited source for all entries: patent US20120316071A1

biological target: T1, rHuman P-Cadherin/Fc Chimera, CF (R&D Systems Cat#861-PC) (human, UniProt P22223 108-654); assay: ECL multispot (MSD) binding assay, antigen spotted on plate, Fab 0.04 uM;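 further: purified Fab incubated 1 h at 20 °C on antigen spots, detected via TAG-labelled antibody, ECL read against each well's blank, with signal-to-blank of at least 4 scored as binder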
T1 construct: Bought recombinant protein; Fc part of the bought chimera not given
Endpoint: ECL signal
The answer should be a number; do not append a unit.

Consider the following illustrative entries.
{"Binder": "Fab VH5-51_IGHD5-18*01>3_IGHJ4*01 G100K/G104T (H:KT) & V3-4_IGLJ1*01 S96A (Fab, V domains shown, Fab; Expressed from Plasmid A (CH1, His6 and Flag tags) and Plasmid E (lambda CL); also called KT & S96A) VH: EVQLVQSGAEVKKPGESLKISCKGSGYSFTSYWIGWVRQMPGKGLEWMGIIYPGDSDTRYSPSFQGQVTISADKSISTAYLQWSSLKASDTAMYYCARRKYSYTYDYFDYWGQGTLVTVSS VL: QTVVTQEPSFSVSPGGTVTLTCGLSSGSVSTSYYPSWYQQTPGQAPRTLIYSTNTRSSGVPDRFSGSILGNKAALTITGAQADDESDYYCVLYMGAGISYVFGTGTKVTVL", "ECL signal": 491}
{"Binder": "Fab VH5-51_IGHD5-18*01>3_IGHJ4*01 G100K/G104T (H:KT) & V3-4_IGLJ1*01 S99A (Fab, V domains shown, Fab; Expressed from Plasmid A (CH1, His6 and Flag tags) and Plasmid E (lambda CL); also called KT & S99A) VH: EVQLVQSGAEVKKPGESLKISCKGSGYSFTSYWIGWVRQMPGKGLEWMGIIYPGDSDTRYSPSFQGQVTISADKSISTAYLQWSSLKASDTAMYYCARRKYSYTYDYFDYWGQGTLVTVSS VL: QTVVTQEPSFSVSPGGTVTLTCGLSSGSVSTSYYPSWYQQTPGQAPRTLIYSTNTRSSGVPDRFSGSILGNKAALTITGAQADDESDYYCVLYMGSGIAYVFGTGTKVTVL", "ECL signal": 500}
{"Binder": "Fab VH5-51_IGHD5-18*01>3_IGHJ4*01 G100K/G104T (H:KT) & V3-4_IGLJ1*01 V91A (Fab, V domains shown, Fab; Expressed from Plasmid A (CH1, His6 and Flag tags) and Plasmid E (lambda CL); also called KT & V91A) VH: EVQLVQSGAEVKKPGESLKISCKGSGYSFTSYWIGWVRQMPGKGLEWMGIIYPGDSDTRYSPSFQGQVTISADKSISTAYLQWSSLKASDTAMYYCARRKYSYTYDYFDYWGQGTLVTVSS VL: QTVVTQEPSFSVSPGGTVTLTCGLSSGSVSTSYYPSWYQQTPGQAPRTLIYSTNTRSSGVPDRFSGSILGNKAALTITGAQADDESDYYCALYMGSGISYVFGTGTKVTVL", "ECL signal": 484}
{"Binder": "Fab VH5-51_IGHD5-18*01>3_IGHJ4*01 G100K/G104T (H:KT) & V3-4_IGLJ1*01 L92A (Fab, V domains shown, Fab; Expressed from Plasmid A (CH1, His6 and Flag tags) and Plasmid E (lambda CL); also called KT & L92A) VH: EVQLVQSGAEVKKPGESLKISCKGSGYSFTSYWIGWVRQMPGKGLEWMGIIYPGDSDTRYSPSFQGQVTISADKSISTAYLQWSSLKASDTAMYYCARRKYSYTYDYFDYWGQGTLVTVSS VL: QTVVTQEPSFSVSPGGTVTLTCGLSSGSVSTSYYPSWYQQTPGQAPRTLIYSTNTRSSGVPDRFSGSILGNKAALTITGAQADDESDYYCVAYMGSGISYVFGTGTKVTVL", "ECL signal": 326}
{"Binder": "Fab VH5-51_IGHD5-18*01>3_IGHJ4*01 G100K/G104T (H:KT) & V3-4_IGLJ1*01 G97A (Fab, V domains shown, Fab; Expressed from Plasmid A (CH1, His6 and Flag tags) and Plasmid E (lambda CL); also called KT & G97A) VH: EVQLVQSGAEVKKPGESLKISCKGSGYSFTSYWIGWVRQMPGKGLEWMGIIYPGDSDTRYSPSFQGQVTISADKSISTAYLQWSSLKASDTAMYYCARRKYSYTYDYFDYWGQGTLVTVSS VL: QTVVTQEPSFSVSPGGTVTLTCGLSSGSVSTSYYPSWYQQTPGQAPRTLIYSTNTRSSGVPDRFSGSILGNKAALTITGAQADDESDYYCVLYMGSAISYVFGTGTKVTVL", "ECL signal": 474}

// next item, ECL signal requested
So, Fab VH5-51_IGHD5-18*01>3_IGHJ4*01 G100K/G104T (H:KT) & V3-4_IGLJ1*01 G95A (Fab, V domains shown, Fab; Expressed from Plasmid A (CH1, His6 and Flag tags) and Plasmid E (lambda CL); also called KT & G95A) VH: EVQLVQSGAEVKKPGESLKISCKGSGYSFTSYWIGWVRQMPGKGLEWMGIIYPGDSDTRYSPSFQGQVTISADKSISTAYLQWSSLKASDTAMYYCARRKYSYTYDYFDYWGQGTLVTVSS VL: QTVVTQEPSFSVSPGGTVTLTCGLSSGSVSTSYYPSWYQQTPGQAPRTLIYSTNTRSSGVPDRFSGSILGNKAALTITGAQADDESDYYCVLYMASGISYVFGTGTKVTVL ? Its ECL signal was 345
